// data source = patent US20250296971A1

- assayed target: GIPR (CHO-K1-hGIPR cells) (Homo sapiens)
- Construct: host or cells: CHO-K1
- Sequence (P48546 22-466): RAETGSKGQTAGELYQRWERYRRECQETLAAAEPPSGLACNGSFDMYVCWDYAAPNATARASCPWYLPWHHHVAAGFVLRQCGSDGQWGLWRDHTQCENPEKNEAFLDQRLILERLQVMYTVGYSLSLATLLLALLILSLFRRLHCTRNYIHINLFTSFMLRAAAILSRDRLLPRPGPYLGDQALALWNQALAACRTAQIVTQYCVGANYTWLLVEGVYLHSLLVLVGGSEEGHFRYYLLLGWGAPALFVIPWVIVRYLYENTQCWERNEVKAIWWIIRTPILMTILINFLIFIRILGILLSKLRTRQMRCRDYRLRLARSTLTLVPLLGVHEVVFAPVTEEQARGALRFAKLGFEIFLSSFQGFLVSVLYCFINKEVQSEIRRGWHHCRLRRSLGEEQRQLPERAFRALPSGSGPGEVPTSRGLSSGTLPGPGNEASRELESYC
- assay notes: FACS binding assay
- conditions: competition with 20 nM GIP-057, 4° C., 1 hour, read-out: pIC50 Category (converted)
*1 amine or outer side, *2 acyl side, *3 side chain or, on linkers, in order; H or OH if unused. Where a SMILES comes first, the peptide text is derived from it. Bridges are numbered along the chain shown (N, C = ends). [ ]: non-standard residue; d: D form. The star is where a group is joined. DOTA = O=C(O)CN1CCN(CC(=O)O)CCN(CC(=O)*)CCN(CC(=O)O)CC1; Trp(5-Cl) = N[C@@H](Cc1c[nH]c2ccc(Cl)cc12)C(=O)O; X7 = c1cc(CSCCN[*:2])cc(C[*:1])c1; X1 = O=C(CN1CCC(N[*:1])CC1)[*:2]; Aib = CC(C)(N)C(=O)O
property label: IC50

compound=CC[C@H](C)[C@@H]1NC(=O)[C@H](CC(C)C)NC(=O)C(C)(C)NC(=O)[C@@H](NC(=O)[C@@H](CC(C)C)NC(=O)[C@H](CCC(=O)O)NC(=O)[C@@H]2CCCN2C(=O)[C@H](Cc2c[nH]c3ccc(Cl)cc23)NC(=O)[C@H](Cc2c[nH]c3ccccc23)NC(=O)[C@H](CC(=O)O)NC(=O)CCC(=O)NCCCOCCOCCOCCCNC(=O)CN2CCN(CC(=O)O)CCN(CC(=O)O)CCN(CC(=O)O)CC2)CNCc2cccc(c2)CSCCNC1=O property_label=IC50 experimental_value="< 10 nM"
compound="CC[C@H](C)[C@@H]1NC(=O)[C@H](CC(C)C)NC(=O)C(C)(C)NC(=O)[C@@H](NC(=O)[C@@H](CC(C)C)NC(=O)[C@H](CCC(=O)O)NC(=O)[C@@H]2CCCN2C(=O)[C@H](Cc2c[nH]c3ccc(Cl)cc23)NC(=O)[C@H](Cc2c[nH]c3ccccc23)NC(=O)[C@H](CC(=O)O)NC(=O)CN2CCC(NC(=O)CN3CCN(CC(=O)O)CCN(CC(=O)O)CCN(CC(=O)O)CC3)CC2)CSCc2cccc(c2)CSCCNC1=O [GIP-089] ({DOTA}-[X1]DW[Trp(5-Cl)]PE[dL]C[Aib]LI; linker 8-C via X7)" property_label=IC50 experimental_value="< 10 nM"
